# Test system: BT-549
# testName: NCI tumour cell line growth inhibition, 48 h
Active and inactive are the calls of the source. Cut-off read from the data, not from the text of the source: active = GI50 up to about 1.1 µM and inactive = higher.
Quick reference for GI50 among some compounds

compound	valueKind	reportedResult
C=CCN1C(=O)/C(=C/c2ccccc2)N=C1SC1OC(COC(C)=O)C(OC(C)=O)C(OC(C)=O)C1OC(C)=O (stereo not drawn)	GI50	28.6 µM (inactive)
O=C1CC(Cl)c2c(Cl)sc(Cl)c21 (stereo not drawn)	GI50	4.06 µM (inactive)
Cc1cn(C2CC(SCCO)C(CO)O2)c(=O)[nH]c1=O (stereo not drawn)	GI50	> 100 µM (inactive)
CN(C)c1ccc(/C=C(\NC(=O)c2ccccc2)C(=O)NC(CC(=O)O)C(=O)O)cc1 (stereo not drawn)	GI50	> 100 µM (inactive)
COc1cc([C@H]2Oc3c(OC)cc(CCCO)cc3[C@@H]2CO)ccc1O [DIHYDRODEHYDRODICONIFERY ALCOHOL]	GI50	94.4 µM (inactive)

Data request: # GI50 lookup, item Cc1ccc(C2SC(=N)Nc3c2c(C)nn3C(=O)c2ccncc2)cc1 (stereo not drawn)
Data returned: > 10 µM (inactive)

Data request: Requested read-out: GI50. Entry: Cc1ccc(C(=O)Nc2ccc(S(=O)(=O)O)c3cc(S(=O)(=O)O)cc(S(=O)(=O)O)c23)cc1NC(=O)c1cccc(NC(=O)Nc2cccc(C(=O)Nc3cc(C(=O)Nc4ccc(S(=O)(=O)O)c5cc(S(=O)(=O)O)cc(S(=O)(=O)O)c45)ccc3C)c2)c1 [SURAMIN]
Data returned: 95.7 µM (inactive)

Data request: I'd like to know its GI50. The compound in question is `O=C1Nc2ccccc2/C1=C/c1ccccc1`
Data returned: 16.4 µM (inactive)

Data request: Entry under review: CC1=CC(=O)C[C@]2(C)[C@@H](O)CC(C(C)CO)C[C@@H]12 (stereo partly drawn) . Reported GI50?
Data returned: > 100 µM (inactive)

Data request: # input compound: `Cc1c(NC(=O)CSC(=S)N2CCN(Cc3ccccc3)CC2)c(=O)n(-c2ccccc2)n1C` ; wanted: its GI50
Data returned: > 100 µM (inactive)

Data request: Quick check: GI50 of `O=Cc1cc2c(cc1-c1c(C=O)ccc3c1OCO3)OCO2` ?
Data returned: > 10 µM (inactive)
